target_system: T1, CD123-Fc recombinant protein (human, UniProt P26951 19-305)
T1 construct: construct not described; not shown: Fc part
T1 sequence (looked up): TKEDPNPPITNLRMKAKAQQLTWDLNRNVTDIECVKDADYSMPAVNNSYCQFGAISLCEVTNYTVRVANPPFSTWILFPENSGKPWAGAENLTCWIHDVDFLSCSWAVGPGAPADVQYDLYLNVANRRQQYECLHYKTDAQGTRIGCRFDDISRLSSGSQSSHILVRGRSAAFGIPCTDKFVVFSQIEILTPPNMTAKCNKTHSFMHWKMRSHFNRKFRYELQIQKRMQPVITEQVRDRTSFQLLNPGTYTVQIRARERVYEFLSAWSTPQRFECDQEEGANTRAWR
assay_details: flow cytometry of T cells electroporated with CAR mRNA, stained with CD123-Fc + PE-anti-hIgG-Fc; Mock 1.68
experimental_endpoint: percent of cells in the CD123-Fc positive gate (%)
Write the value in % as a bare number.

I am curious: what percent of cells in the CD123-Fc positive gate value has been reported for anti-CD123 scFv-C14 (scFv, On mRNA-electroporated T cells as CAR) scFv: DIRMTQSPSSLSASVGDRVTITCQASQDITNYLNWYHQKPGKAPKLLIYDASNLETGVPSRFSGGGSGTDFTFTISSLQSEDIGTYYCQQYDDLPLTFGGGTKVEIKGGGGSGGGGSGGGGSQVQLQESGPGLVKPSETLSLTCTVSGGSISSSSHYWGWIRQPPGKGLEWIGSIYYSGSTYYNPSLKSRVTISVDTSKNQFSLKLSSVTAADTAVYYCARRVWVWPTYGMDVWGQGTTVTVSS ?
85.4

What does the record list as percent of cells in the CD123-Fc positive gate for anti-CD123 scFv-C15 (scFv, On mRNA-electroporated T cells as CAR) scFv: DIQLTQSPSTLSASVGDRVTISCRASQSISSWLAWYQHKPGKAPKLLIYKTSALEDGVPSRFSGSGSGTEFTLTISSLQPDDFATYFCLHYGSYTFGQGTKVDIKGGGGSGGGGSGGGGSEVQLVESGGGLVNPGGSLRLSCEASGFTFSDYYISWIRQAPGKGLEWISYISGSSTYTDFADSVKGRFTISRDNAKNTVFLQMNSLRAEDTAVYYCARDRRGRFDPWGQGTLVTVSS ?
97.3

Report percent of cells in the CD123-Fc positive gate for anti-CD123 scFv-C18 (scFv, On mRNA-electroporated T cells as CAR) scFv: QSALTQPASVSGSPGQSITISCTGTSSDVGGYNYVSWYQQHPGKAPKLMIYDVSNRPSGVSNRFSGSKSGNTASLTISGLQAEDEADYYCSSYTSSSTLFVFGTGTELTVLGGGGSGGGGSGGGGSQVQLQESGPGLVKPSQTLSLTCTVSGGSISSGDYYWSWIRQSPGKGLEWIGYIHSTGTTYYNPSLKSRLTISLDTSKNQFSLKLNSVTAADTAVYYCARGGVGTIFNYWGQGTLVTVSS please.
87.8

Please give the measured percent of cells in the CD123-Fc positive gate for this binder: anti-CD123 scFv-C4 (scFv, On mRNA-electroporated T cells as CAR) scFv: QSALTQPPSASGTPGQRVTISCSGSSSNIGSNYVNWYQQLPGTAPKLLIYRNNQRPSGVPDRFSGSKSGTSASLAISGLRSEDEADYYCAAWDDSLSGHGVFGTGTELTVLGGGGSGGGGSGGGGSQVQLVQSGPEVKKPGASVKVSCKASGYDFIRYYMNWVRQAPGQGPEWMGAIDPSDGDTTYGQKFQGRVTLTRDTFTSTVYMELSSLRSEDTAVYYCARDWELTNSYGLDVWGQGTTVTVSS
93.8

Name the reported percent of cells in the CD123-Fc positive gate value associated with the binder anti-CD123 scFv-C10 (scFv, On mRNA-electroporated T cells as CAR) scFv: SYELTQPPSVSVAPGKTARITCGGNNIGSKSVHWYQQKPGQAPVLVVYDDSDRPSGIPERFSGSNSGNTATLTISRVEAGDEADYYCQVWDSSSDHWVFGGGTKLTVLGGGGSGGGGSGGGGSQVQLVQSGAEVKKPGSSVKVSCKASGGTFSSYAISWVRQAPGQGLEWMGGIIPIFGTANYAQKFQGRVTITADESTSTAYMELSSLRSEDTAVYYCAREKWGYYGDYYYGMDVWGQGTTVTVSS
32.3

Kindly review the next binder as well.
What percent of cells in the CD123-Fc positive gate value was documented for this binder, anti-CD123 scFv-C9 (scFv, On mRNA-electroporated T cells as CAR) scFv: QSVLTQPPSASGTPGQRVTISCSGSNSNIENNYVYWYQHLPGTAPKRLIYQNNQRPSGVPDRFSGSKSGTSASLAISGLRSEDEADYYCSAWDDSLSAWVFGGGTELTVLGGGGSGGGGSGGGGSEVHLVESGGGLVQPGRSLRLSCTASGFTFGDYAMNWVRQAPGKGLEWVGFIRSKASGGTTDYAASVKGRFTISRDDSKSIAYLQMNSLKTEDTAVYYCTRALRGYSYGLFDYWGQGTLVTVSS ?
94

Values were extracted from patent US20250381223A1.
